# reported.conditions: in methanol, 313.15 K
experimental.readout: solubility (mole fraction)

Query block: Given the compound CC[C@H](C)[C@H](N)C(=O)O , write its reported solubility (mole fraction).
Result block: 0.00105

---

# reported.conditions: in acetonitrile, 293.15 K
experimental.readout: solubility (mole fraction)

Query block: Read the entry CC[C@H](C)[C@H](N)C(=O)O and write its reported solubility (mole fraction).
Result block: 0.000276

---

# reported.conditions: in acetonitrile, 313.15 K
experimental.readout: solubility (mole fraction)
# output: bare number, no unit

Query block: Find the measured solubility (mole fraction) of CC[C@H](C)[C@H](N)C(=O)O and report it.
Result block: 0.000525

---

# reported.conditions: in 1,4-dioxane, 303.15 K
experimental.readout: solubility (mole fraction)

Query block: Let me know recorded solubility (mole fraction) for CC[C@H](C)[C@H](N)C(=O)O , thanks.
Result block: 0.00172

---

# reported.conditions: in 2-butanone, 318.15 K
experimental.readout: solubility (mole fraction)
Form rule: numeric answer, no unit written next to it.

Query block: Please report solubility (mole fraction) for the following compound: CC[C@H](C)[C@H](N)C(=O)O
Result block: 0.00118

---

# reported.conditions: in acetone, 323.15 K
experimental.readout: solubility (mole fraction)
Enter the number alone.

Query block: Hello, please tell me recorded solubility (mole fraction) for this one: CC[C@H](C)[C@H](N)C(=O)O
Result block: 0.000132

---

# reported.conditions: in methanol, 298.15 K
experimental.readout: solubility (mole fraction)
Keep the answer to the number alone.

Query block: Please look at this compound and report its solubility (mole fraction): CC[C@H](C)[C@H](N)C(=O)O
Result block: 0.000891

---

# reported.conditions: in 1,4-dioxane, 308.15 K
experimental.readout: solubility (mole fraction)
The response must contain the number and no unit.

Query block: Report measured solubility (mole fraction); entry is CC[C@H](C)[C@H](N)C(=O)O
Result block: 0.00195

---

# reported.conditions: in methyl acetate, 318.15 K
experimental.readout: solubility (mole fraction)
Answer with a bare number; do not write a unit.

Query block: Write down solubility (mole fraction) measured for item CC[C@H](C)[C@H](N)C(=O)O
Result block: 0.00472

---

# reported.conditions: in 2-butanone, 313.15 K
experimental.readout: solubility (mole fraction)
Keep the answer to the number alone.

Query block: Return value of solubility (mole fraction) for input CC[C@H](C)[C@H](N)C(=O)O , no commentary.
Result block: 0.000978

---

# reported.conditions: in n-butanol, 323.15 K
experimental.readout: solubility (mole fraction)
The response must contain the number and no unit.

Query block: Give me measured solubility (mole fraction), please, for this compound: CC[C@H](C)[C@H](N)C(=O)O
Result block: 0.000838

---

# reported.conditions: in ethyl acetate, 293.15 K
experimental.readout: solubility (mole fraction)
Answer using only a numeral; do not append any unit.

Query block: Note down solubility (mole fraction) recorded for CC[C@H](C)[C@H](N)C(=O)O
Result block: 0.000482

---

# reported.conditions: in isobutanol, 283.15 K
experimental.readout: solubility (mole fraction)
Give the value as a plain number.

Query block: Please report the measured solubility (mole fraction) for CC[C@H](C)[C@H](N)C(=O)O
Result block: 0.00106

---

# reported.conditions: in ethyl acetate, 283.15 K
experimental.readout: solubility (mole fraction)
Give your answer as a number; write no unit.

Query block: Please give measured solubility (mole fraction) of the following entry: CC[C@H](C)[C@H](N)C(=O)O
Result block: 0.000398
